systemTested: 5-HT2 receptor (Rattus norvegicus, UniProt P14842)
Construct: A7r5 rat vascular smooth muscle cells; endogenous in cells; host or cells: A7r5 rat vascular smooth muscle cells
Sequence (P14842 whole entry): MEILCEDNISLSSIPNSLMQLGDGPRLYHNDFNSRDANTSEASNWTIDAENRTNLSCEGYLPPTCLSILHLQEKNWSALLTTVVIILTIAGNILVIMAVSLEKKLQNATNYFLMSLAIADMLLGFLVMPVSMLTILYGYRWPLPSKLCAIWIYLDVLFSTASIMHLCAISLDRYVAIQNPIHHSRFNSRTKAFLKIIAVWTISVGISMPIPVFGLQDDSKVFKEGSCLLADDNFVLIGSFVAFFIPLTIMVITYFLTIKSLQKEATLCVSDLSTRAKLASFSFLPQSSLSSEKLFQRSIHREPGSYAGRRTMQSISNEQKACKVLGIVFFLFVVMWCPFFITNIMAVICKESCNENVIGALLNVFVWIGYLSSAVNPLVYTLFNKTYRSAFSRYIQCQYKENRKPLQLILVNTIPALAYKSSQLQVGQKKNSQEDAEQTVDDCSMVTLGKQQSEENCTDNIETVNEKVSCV
assayProtocol: 5-HT2 functional assay: phosphoinositide (PI) turnover
Assay type: cell-based

| compound | EC50 [nM] |
| --- | --- |
| COc1ccc2[nH]cc(CC(C)N)c2c1.O=C(O)/C=C/C(=O)O (stereo not drawn) [α-Methyl 5-methoxytryptamine fumarate] | 206 |
